Reported self-cleavage kobs at 10000 uM GlcN6P is given for each of the following variants.
B1: glmS ribozyme (parent)
chain: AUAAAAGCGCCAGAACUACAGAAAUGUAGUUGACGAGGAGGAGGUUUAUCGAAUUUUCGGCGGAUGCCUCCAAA

Variants of: B1
Assay: self-cleavage kobs at 10000 uM GlcN6P; higher = faster cleavage; RNA array
Details: with glucosamine-6-phosphate
Fewer inactive variants are shown than the library holds.
Use s⁻¹ as the unit, but write only the number.

[
  {
    "variant": "A12C G66U C70U",
    "self-cleavage kobs at 10000 uM GlcN6P (s⁻¹)": 0.000992
  }
]

query: Reported self-cleavage kobs at 10000 uM GlcN6P for U30C C50A U65A U69G : what is it?
result: 3.19e-05

query: Need self-cleavage kobs at 10000 uM GlcN6P, item G13U C16U
result: 0.0021

query: Please look up its self-cleavage kobs at 10000 uM GlcN6P: A6G A14U U31C C50G
result: 0.000265

query: Recorded self-cleavage kobs at 10000 uM GlcN6P of G29C C50G , please.
result: 2.54e-05

query: Consider the variant shown here: A52C U57C What is its recorded self-cleavage kobs at 10000 uM GlcN6P?
result: 2.95e-05

query: Entry A12C A42U has what self-cleavage kobs at 10000 uM GlcN6P?
result: 0.000192

query: Would you mind telling me what self-cleavage kobs at 10000 uM GlcN6P value was observed for A39C A52U ?
result: 7.13e-05

query: Could you tell me which self-cleavage kobs at 10000 uM GlcN6P is on file for A52G C68U ?
result: 0.000858

query: For the variant A52G U69C , what self-cleavage kobs at 10000 uM GlcN6P is on record?
result: 0.000381

query: Tell me the measured self-cleavage kobs at 10000 uM GlcN6P of U54A U65A , please.
result: 0.00595

query: Fill blank: measured self-cleavage kobs at 10000 uM GlcN6P of the variant G29U G32A is ____.
result: 0.00128
